Below, each of the compounds is paired with its reported Iodine color number, start value.
# protocol-description: Iodine color number according to DIN 6162:2014-09
# Format: physicochemical
# assay-context: Polymer P7 with stabilizer; start
Number, no unit, nothing else.

Below: 3 compounds and their reported Iodine color number, start.
compound | Iodine color number, start
CCCCNC(=O)OCC#CI [Iodopropynyl butyl carbamate, iodopropynyl butyl carbamate] | 3.4
CCCCCCCCn1sc(Cl)c(Cl)c1=O | 3.6
Cn1sc(Cl)cc1=O | 3.5

Incoming: // lookup Iodine color number, start for CCCCCCCCCCCCCCCC[N+](C)(C)Cc1ccccc1.[Cl-] [Polymer 16-BAC, cetylalkonium chloride]
Outgoing: 3.4

Incoming: Which Iodine color number, start value belongs to O=c1[nH]sc2ccccc12 ?
Outgoing: 3.6

Incoming: Which value of Iodine color number, start has been reported for CCCCCCCCCC[N+](C)(C)CCCCCCCCCC.[Cl-] [DDAC, didecyldimethylammonium chloride] in the records?
Outgoing: 3.3

Incoming: Fill in the blank: the reported Iodine color number, start of Cn1sccc1=O is ____.
Outgoing: 3.6

Incoming: Request the reported Iodine color number, start associated with CCCCCCCCn1sccc1=O
Outgoing: 3.4

----------
# protocol-description: Iodine color number according to DIN 6162:2014-09
# Assay type: physicochemical
# assay-context: Polymer P7 with stabilizer; 60 d 40° C.
Quick list: Iodine color number, 60 d 40° C. per entry.
Answer as a number with no unit attached.

molecule | measure | recorded-result
Cn1sc(Cl)cc1=O [CMIT, 5-chloro-N-methylisothiazolin-3-one] | Iodine color number, 60 d 40° C. | 9.1
CCCCCCCCCC[N+](C)(C)CCCCCCCCCC.[Cl-] [DDAC, didecyldimethylammonium chloride] | Iodine color number, 60 d 40° C. | 3.3
CCCCCCCCn1sc(Cl)c(Cl)c1=O [DCOIT, dichloroctylisothiazolinone] | Iodine color number, 60 d 40° C. | 8.4
CCCCNC(=O)OCC#CI [Iodopropynyl butyl carbamate, iodopropynyl butyl carbamate] | Iodine color number, 60 d 40° C. | 11.0
CCCCCCCCn1sccc1=O [OIT, octylisothiazolinone] | Iodine color number, 60 d 40° C. | 9.7

Incoming: Fill in: Iodine color number, 60 d 40° C. of CCCCCCCCCCCCCCCC[N+](C)(C)Cc1ccccc1.[Cl-] [Polymer 16-BAC, cetylalkonium chloride] is ___
Outgoing: 3.5

Incoming: # query: Iodine color number, 60 d 40° C. of entry O=c1[nH]sc2ccccc12 [BIT, 1,2-benzisothiazolin-3-one]
Outgoing: 10.0

Incoming: Look up Iodine color number, 60 d 40° C. for this molecule: Cn1sccc1=O [MIT, methyl-4-isothiazolin-3-one]
Outgoing: 8.5

----------
Here, each record is paired with measured active-substance concentration, 60 d 40° C. data.
# protocol-description: Analysis of active substance: preservative concentration before and after storage in VI-containing polymer solution
# Assay type: physicochemical
# assay-context: in Polymer P9; storage 60 d at 40° C.
Reply numerically in ppm, unit not repeated.

Previously resolved entries follow.
molecule | recorded-result
Cn1sc(Cl)cc1=O | 51
CCCCNC(=O)OCC#CI [Iodopropynyl butyl carbamate, iodopropynyl butyl carbamate] | 78
Cn1sccc1=O | 80

Let's switch to this molecule now.
Incoming: Item under review: CCCCCCCCCC[N+](C)(C)CCCCCCCCCC.[Cl-] [DDAC, didecyldimethylammonium chloride] . Reported active-substance concentration, 60 d 40° C.?
Outgoing: 940

Just for reference, patent US12281225B2 is where these values come from.
